- Tested on: OVCAR-5
- assay procedure: NCI tumour cell line growth inhibition, 48 h
Activity calls are given as the source filed them. Rule as the data show it: active = GI50 up to about 1.1 µM and inactive = higher.
I'd be grateful if you could share measured GI50 for these entries.

>>> print(df.to_string())
                                   compound  target_entity  observable        readout_value
0  COc1ccc(S(=O)(=O)NC(C)C(=O)O)cc1 (stereo unspecified)        OVCAR-5        GI50  > 100 µM (inactive)
1     COc1ccc2c(C)cc(N/N=C/c3ccc(C)s3)nc2c1        OVCAR-5        GI50   12.6 µM (inactive)
2     Cc1ccc(NC(=O)C(=O)CC(=O)c2ccccc2)cc1C        OVCAR-5        GI50  > 100 µM (inactive)

Each compound below has a reported value. Please supply its GI50.
1. c1ccc(CCCCNCc2cc(CNCCCCc3ccccc3)cc(CNCCCCc3ccccc3)c2)cc1
2. O=[N+]([O-])c1cc(Br)cc2cc(Cl)cnc12
3. CCc1cccc(CC)c1NC(=O)/C(Cl)=C(/Cl)C(=O)O

1.7 µM (inactive)
> 100 µM (inactive)
> 100 µM (inactive)
